# tested_target: PK-C α (Homo sapiens)
# measurement_notes: stimulation of phosphorylation of the α-pseudosubstrate peptide (activation of PK-C α)
# applied_conditions: read-out: ED50, stimulation of phosphorylation of the α-pseudosubstrate peptide
measurement_type: pEC50
Give bare numbers, as −log10 of the molar value.

I'd like to know its pEC50. The compound in question is CCCCCCCC/C=C\CCCCCCC/C=C1/C[C@](/C=C/C(=O)OC)(CO)OC1=O 6.79

---

So I've got a bunch of compounds here, and I need their pKi values.
# tested_target: PK-C α (Homo sapiens, UniProt P17252)
# Construct: made in house
# measurement_notes: displacement of bound [3H-20]-phorbol-12,13-dibutyrate (PDBU) from single recombinant isozyme PK-C α
# Format: binding
# applied_conditions: PK-C α; read-out: Ki, displacement of bound PDBU
One number for each entry, as −log10 of the molar value.

| compound | pKi |
| --- | --- |
| CCCCCCCCCCCCCC(=O)OC[C@]1(CO)CCC(=O)O1 | 7.02 |

Read the next record carefully.
Given the entry CCCCCCCCCCCCCC(=O)OCC1(CO)CCC(=O)O1 (racemic) , report its measured pKi. 6.86

---

# System: binding of epidermal growth factor
# measurement_notes: inhibition of binding of epidermal growth factor in intact cells
# Format: cell-based
# applied_conditions: read-out: ED50, inhibition of binding of epidermal growth factor
measurement_type: pIC50
Numbers only, as −log10 of the molar value.

I am curious: what pIC50 value has been reported for CCCCCCCC/C=C\CCCCCCC/C=C1/C[C@](/C=C/C(=O)OC)(CO)OC1=O ? 6.00

---

Assign Ki to each entry below.
# tested_target: PK-C α (Homo sapiens, UniProt P17252)
# Construct: made in house
# measurement_notes: displacement of bound [3H-20]-phorbol-12,13-dibutyrate (PDBU) from single recombinant isozyme PK-C α
# Format: binding
# applied_conditions: Table I; PK-C α; read-out: Apparent Ki for ligands as inhibitors of PDBU binding to PK-C
# Method: This recombinant PK-C α was expressed in baculovirus and isolated as described by Kazanietz et al. (Mol. Pharmacol. 44: 298-307 (1993)). The affinity of these ligands for PK-C was assessed in terms of their ability to displace bound [^3 H-20]-phorbol-12,13-dibutyrate (PDBU) from a purified product containing the single isozyme PK-C α.
Give bare numbers, in µM.

Solved entries:
| molecule | tested_target | Ki, µM |
| --- | --- | --- |
| CCCCCCCCCCCCCCC1CC(CO)(COC(C)=O)OC1=O (stereo not shown) | PK-C α (Homo sapiens, UniProt P17252) | 0.075 |
| CCCCCCCCCCCCC/C=C1\C(=O)OCC1(CO)COC(C)=O (stereo not shown) [Compound 14c] | PK-C α (Homo sapiens, UniProt P17252) | 6.51 |
| CCCCCCCC/C=C\CCCCCCCC(=O)OCC1(CO)CCC(=O)O1 (stereo not shown) | PK-C α (Homo sapiens, UniProt P17252) | 0.096 |

Which Ki value belongs to CCCCCCCCCCCCCC(=O)OCC1(CO)COC(=O)C1 (stereo not shown) ? 9.81

---

# tested_target: PK-C α (Homo sapiens, UniProt P17252)
# Construct: made in house
# measurement_notes: displacement of bound [3H-20]-phorbol-12,13-dibutyrate (PDBU) from single recombinant isozyme PK-C α
# Format: binding
# applied_conditions: Table IV; PK-C α; read-out: Apparent Ki for chiral ligands having an α-alkylidene chain as inhibitors of PDBU binding to PK-C
measurement_type: Ki (µM)
One number for each entry, in µM.

| compound | Ki / µM |
| --- | --- |
| CCCCCCCC/C=C\CCCCCCC/C=C1\C[C@](/C=C/C(=O)OC)(CO)OC1=O [drawing 35] | 0.0201 |

Then this compound:
Item CCCCCCCC/C=C\CCCCCCC/C=C1/C[C@](/C=C/C(=O)OC)(CO)OC1=O [drawing 36] has what recorded Ki? 0.0113
